assay: Two-component Cys-Lys stapling: Cys S-alkynylation by EBX-pentafluorophenyl ester reagents 9a-9d (1.1 equiv), then intramolecular Lys aminolysis of the PFP ester; DIPEA (2.5 equiv); settings: the molecule shown is the open-chain precursor; 26-membered ring; DMF; 1.0 mM; 37.0 °C; 0.5 h; scale: % relative absorbance at 210 nm vs linear peptide standard
Examples of substances with documented ring closure, conversion by HPLC follow.
Write no unit; give the number alone.

substance	ring closure, conversion by HPLC
Ac-ENPEC(S-C≡C-C6H4-3-CO-OPfp)ILDKHVQRVM-NH2	34

Incoming: Dear colleague, please send me the reported ring closure, conversion by HPLC for Ac-YGGEAARK(ivDde)AC(S-C≡C-C6H4-3-CO-OPfp)AREKAARE-NH2 when you can.
Outgoing: 72

Incoming: Look up and state reported ring closure, conversion by HPLC for Ac-YGGEAAREAC(S-C≡C-C6H4-3-CO-OPfp)AREKAARE-NH2
Outgoing: 77

Incoming: Identify measured ring closure, conversion by HPLC corresponding to Ac-YGGEAARKAC(S-C≡C-C6H4-3-CO-OPfp)AREKAARE-NH2
Outgoing: 74

Data origin: paper PMC8048981
